Target: T1, recombinant hIL-18Rα extracellular domain (human, UniProt Q13478 22-329, biotin label (selection) or fluorescent probe (single-clone FACS), sites not given)
T1 construct: extracellular domain; also called hIL-18Rα ECD; hIL-18Rα-ECD
T1 sequence (looked up): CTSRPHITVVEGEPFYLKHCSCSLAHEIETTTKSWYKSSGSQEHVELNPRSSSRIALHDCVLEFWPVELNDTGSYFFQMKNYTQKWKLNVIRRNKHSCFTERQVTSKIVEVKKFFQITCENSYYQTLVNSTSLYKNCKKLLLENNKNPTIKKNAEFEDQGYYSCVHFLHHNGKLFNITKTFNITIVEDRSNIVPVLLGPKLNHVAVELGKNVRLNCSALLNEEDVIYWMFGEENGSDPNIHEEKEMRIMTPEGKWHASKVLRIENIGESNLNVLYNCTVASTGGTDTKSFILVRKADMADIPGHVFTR
Test: single-clone FACS, yeast display, 10 nM labelled hIL-18Rα ECD
MEASUREMENT_TYPE: % of fluorescence positive cells

Consider the worked cases shown below.
- SEQ ID NO 79 (ligand) YFPKLGSKLSVIRNLNDQVLFIDQGNRPLFEDMTDSDCRDNAPRTIFIISMYKWSQPRGMAVTISVKCEKISTLSCENKIISFKEMNPPDVIKDTKSDIIFFQYSVPGHDNKMQFESSSYEGYFLACEKERDLFKLILKKEDELGDRSIMFTVQNED: 21.5%
- SEQ ID NO 29 (ligand) YFPKLTSKLSVIRNLNDQVLFIDQGNRPLFEDMTDSDCRDNAPRTIFIISMYKHSYARGMAVTISVKCEKISTLSCENKIISFKEMNPPDVIKDTKSDIIFFQRSVPGHDNKMQFESSSYEGYFLACEKERDLFKLILKKEDELGDRSIMFTVQNED: 89.7%

Pending binder:
Sure, the documented % of fluorescence positive cells for IL-18 variant polypeptide M31 (ligand) YFPKLRSKLSVIRNLNDQVLFIDQGNRPLFEDMTDSDCRDNAPRTIFIISMYKHSIHRGMAVTISVKCEKISTLSCENKIISFKEMNPPDIIKDTKSDIIFFQYSVPGHDNKMQFESSSYEGYFLACEKERDLFKLILKKEDELGDRSIMFTVQNED is 69%

Every entry's value here was drawn from patent US20260092093A1.
